Measured IC50 accompanies every entry in the list below.
test system: Recombinant human His-tagged Kat6a protein (amino acids 194-810) (Homo sapiens (Human), UniProt Q92794)
Sequence (Q92794 194-810): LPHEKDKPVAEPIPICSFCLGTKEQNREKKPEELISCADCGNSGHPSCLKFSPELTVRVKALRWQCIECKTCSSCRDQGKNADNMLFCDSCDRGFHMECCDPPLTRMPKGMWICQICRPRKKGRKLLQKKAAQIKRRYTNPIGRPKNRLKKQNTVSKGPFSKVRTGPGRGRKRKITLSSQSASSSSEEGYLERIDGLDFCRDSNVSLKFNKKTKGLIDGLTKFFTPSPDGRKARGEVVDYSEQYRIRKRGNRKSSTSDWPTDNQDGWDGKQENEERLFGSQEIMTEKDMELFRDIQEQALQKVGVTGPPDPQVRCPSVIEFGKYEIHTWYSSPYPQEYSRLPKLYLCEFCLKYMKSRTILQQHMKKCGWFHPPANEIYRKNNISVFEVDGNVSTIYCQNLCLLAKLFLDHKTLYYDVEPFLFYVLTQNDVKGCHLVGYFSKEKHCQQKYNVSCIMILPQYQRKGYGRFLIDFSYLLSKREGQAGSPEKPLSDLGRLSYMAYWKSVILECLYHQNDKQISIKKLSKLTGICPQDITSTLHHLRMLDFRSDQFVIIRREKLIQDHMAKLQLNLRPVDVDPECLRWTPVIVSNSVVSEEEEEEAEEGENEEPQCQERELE
method notes: Kat6a activity assay (TR-FRET, acetylation of biotinylated Histone-H4-derived peptide)
condition: 60 mins at 22° C., read-out: KAT6A-DPF/HAT domain IC50 [mol/l] (arithmetic mean)
A number alone suffices; assume nM.

# count of solved cases: 4
CN(C)c1ccc2cc(C(=O)NS(=O)(=O)c3c(Cl)cccc3C(F)(F)F)oc2c1 ... 465
CCOc1ccc(C(C)C)cc1S(=O)(=O)NC(=O)c1cc2ccc(N(C)C)cc2o1 ... 13.5
Cc1cc(Cl)c2cccc(S(=O)(=O)NC(=O)c3cc4ccc(N(C)C)cc4o3)c2n1 ... 48.8
CN(C)c1ccc2cc(C(=O)NS(=O)(=O)c3cc(Cl)c(Cl)cc3OC(F)(F)F)oc2c1 ... 81.5

input: Given the molecule COc1ccc(Br)cc1S(=O)(=O)NC(=O)c1cc2ccc(N(C)C)cc2o1 , write its reported IC50.
output: 104

input: Given the molecule CN(C)c1ccc2cc(C(=O)NS(=O)(=O)c3ccccc3OCC3CC3)oc2c1 , write its reported IC50.
output: 72.4

input: Given the molecule CN(C)c1ccc2cc(C(=O)NS(=O)(=O)c3ccccc3-c3ccccc3)oc2c1Br [Example 50] , write its reported IC50.
output: 4230
